- assay text: Pharmacokinetics of tramadol and O-desmethyl tramadol in SD rats with or without crizotinib
- stated conditions: male, Sprague-Dawley, rat, serum, po, 20 mg/kg, Vz/F, Group C: 0.5% CMC-Na for 7 days, then single 20 mg/kg tramadol
- Description: Ultra-performance liquid chromatography-tandem mass spectrometry (UPLC-MS/MS) was utilized to measure the concentration of both tramadol and O-desmethyl tramadol. Separation was achieved using a Waters Acquity UPLC BEH C18 column, with dimensions of 2.1 mm × 50 mm and 1.7-µm particle size (Waters Corp., Milford, MA, USA), and quantitation was completed using a Waters XEVO TQD triple quadruple mass spectrometer. […]
observed property: Vd/F (L/kg)
Provide the reading as a plain figure in L/kg.

CN(C)C[C@H]1CCCC[C@]1(O)c1cccc(O)c1 = 72.5

Next up:
### Prompt Look at this compound and give its reported Vd/F. COc1cccc(C2(O)CCCCC2CN(C)C)c1 (centres unmarked)
### Response 307
